Origin of values: patent US20160368965A1

biological target: T1, HLA-A*02:01 (human); experiment: UV-ligand exchange, anti-β2m ELISA; grade of peptide exchange yield
T1 construct: the tested peptide takes its place; also called peptide-receptive MHC molecules; MHC class I
Measure Name: peptide exchange yield

// query peptide exchange yield value for entry FLTEAALGDA [FLTEAALGDA (SEQ ID NO: 38)]
50 to 75%

Next binder: ALIAEGIAL [ALIAEGIAL (SEQ ID NO: 82)]
50 to 75%

Next binder: ALYEKDNTYL [ALYEKDNTYL (SEQ ID NO: 129)]
50 to 75%
